Kindly state log10(IC50) for each of the entries shown.
Biological target: kappa opioid receptor (OPRK1) (Homo sapiens (Human), UniProt P41145)
Sequence (P41145 whole entry): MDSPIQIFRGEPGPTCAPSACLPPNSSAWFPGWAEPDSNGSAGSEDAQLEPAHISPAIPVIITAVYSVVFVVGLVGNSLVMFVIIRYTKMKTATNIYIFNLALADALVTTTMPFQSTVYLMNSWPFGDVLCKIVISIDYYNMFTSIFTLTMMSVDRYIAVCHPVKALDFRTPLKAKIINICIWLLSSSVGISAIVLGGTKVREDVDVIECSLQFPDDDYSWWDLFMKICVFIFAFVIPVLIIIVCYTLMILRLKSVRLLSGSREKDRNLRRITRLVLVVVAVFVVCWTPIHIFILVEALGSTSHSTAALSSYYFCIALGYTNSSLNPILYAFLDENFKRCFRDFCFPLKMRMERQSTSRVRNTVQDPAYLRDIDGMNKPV
Assay: OPRK1 antagonist assay (b-arrestin-2-TEV / b-lactamase reporter cell line, EC80 U-50488 challenge)
Type: cell-based
Settings: read-out: IC50 nM (% inhib if other than 50%); antagonist mode vs EC80 U-50488; NA = not active at concentrations up to 10 μM
Parameter value (number): base-10 log of IC50 in nM.

compound="Cc1cnc(N2CCC(NC3CCCCCC3)C(CO)C2)c(-c2nc(C)no2)c1 (centres unmarked) [compound 197]" numeric_value=1.93
compound="Cc1ccc2nc(N3CCC(NC4CCOCC4)CC3)c(-c3nc(C)no3)nc2c1 [compound 518]" numeric_value=2.61
compound="Cc1ccc2nc(N3CCC(NC[C@@H](C)O)CC3)c(-c3nc(C)no3)cc2c1 [compound 421]" numeric_value=1.68
compound="CCOC(=O)c1nc2cc(C)ccc2nc1N1CCC(NC2CCCCC2)C(OC)C1 (centres unmarked) [compound 353]" numeric_value=1.36
compound="Cc1noc(-c2cc(C)c(C)nc2N2CC[C@@H](NC3CCCCC3)[C@H](O)C2)n1 [compound 154]" numeric_value=2.16

Please supply log10(IC50) for each of the following items, keeping them in order.
1. COC(=O)c1cc(Cl)cnc1N1CCC(NC2CCCCC2)C(O)C1 (centres unmarked) [compound 43]
2. CCc1noc(-c2cc(C)cnc2N2CC[C@@H](NC3CCCCC3)[C@H](O)C2)n1 [compound 168]
3. COC(=O)c1cc(Br)cnc1N1CCC(N[C@@H]2CCCC[C@H]2O)CC1 [compound 1]
4. Cc1ccc2nc(N3CCC(NC4CCC(O)CC4)CC3)c(-c3nc(C)no3)cc2c1 (centres unmarked) [compound 246]
5. Cc1nc(-c2cc3cc(F)ccc3nc2N2CCC(NC3CCCC3)CC2)no1 [compound 468]
6. CCc1noc(-c2cc3cc(C)ccc3nc2N2CCC(NC3CCCCCC3)C(OC)C2)n1 (centres unmarked) [compound 313]

[A]
1: 1.72; 2: 3.85; 3: 2.36; 4: 1.71; 5: 2.24; 6: 0.18
